- Test system: novel HCEH
- protocol text: Inhibition of the novel HCEH
- Format: biochemical
measurement name: Inhibition of HCEH

As a guide, the following entries are already answered.
[Hg+2] [Hg^++] : inhibited
O=C(O)c1cc[c]([Hg][Cl])cc1 [p-CMB, p-chloromercury-benzoic acid] : inhibited
II [iodine] : inhibited
Oc1cccc2cccnc12 [8-hydroxyquinoline] : inhibited

Okay, next one:
Inhibition of HCEH reported for this compound [Fe+2] [Fe^++] : inhibited
